Substrate: CCCC(=O)Oc1ccc([N+](=O)[O-])cc1
test_protocol: purified protein
Type: biochemical, Lactobacillus johnsonii
measurement_conditions: HEPES pH 7.80, 25 °C (typical assay; saturation conditions as in ref 14), pH 7.8
Can you tell me kcat for the items I'm about to list?
Put your answer as a value accompanied by its unit after it.

Noted for LJ0536, cinnamoyl esterase of Lactobacillus johnsonii N6.2 (wild type) (enzyme, UniProt D3YEX6 1-249, looked up, LJ0536, serine cinnamoyl esterase, Lactobacillus johnsonii N6.2; the crystallised fragment 1-245 is said to lack four C-terminal residues of the full-length protein; The protein as used for gel filtration; also called WT) MATITLERDGLQLVGTREEPFGEIYDMAIIFHGFTANRNTSLLREIANSLRDENIASVRFDFNGHGDSDGKFENMTVLNEIEDANAILNYVKTDPHVRNIYLVGHSQGGVVASMLAGLYPDLIKKVVLLAPAATLKGDALEGNTQGVTYNPDHIPDRLPFKDLTLGGFYLRIAQQLPIYEVSAQFTKPVCLIHGTDDTVVSPNASKKYDQIYQNSTLHLIEGADHCFSDSYQKNAVNLTTDFLQNNNAF : its kcat reads 1.53 s⁻¹

Summary for this protein, LJ0536 (cinnamoyl esterase) (Lactobacillus johnsonii; H32A) (protein, full length in p15TV-L, E. coli BL21(DE3); His6-tag removed by TEV for kinetics; crystals: tag uncleaved, protease-treated (subtilisin or V8), residues 1-245 modelled, four C-terminal residues lost) MATITLERDGLQLVGTREEPFGEIYDMAIIFAGFTANRNTSLLREIANSLRDENIASVRFDFNGHGDSDGKFENMTVLNEIEDANAILNYVKTDPHVRNIYLVGHSQGGVVASMLAGLYPDLIKKVVLLAPAATLKGDALEGNTQGVTYNPDHIPDRLPFKDLTLGGFYLRIAQQLPIYEVSAQFTKPVCLIHGTDDTVVSPNASKKYDQIYQNSTLHLIEGADHCFSDSYQKNAVNLTTDFLQNNNAF : kcat is 0.04 s⁻¹

The recorded kcat for LJ0536 (cinnamoyl esterase) (Lactobacillus johnsonii; D138A) (protein, full length in p15TV-L, E. coli BL21(DE3); His6-tag removed by TEV for kinetics; crystals: tag uncleaved, protease-treated (subtilisin or V8), residues 1-245 modelled, four C-terminal residues lost) MATITLERDGLQLVGTREEPFGEIYDMAIIFHGFTANRNTSLLREIANSLRDENIASVRFDFNGHGDSDGKFENMTVLNEIEDANAILNYVKTDPHVRNIYLVGHSQGGVVASMLAGLYPDLIKKVVLLAPAATLKGAALEGNTQGVTYNPDHIPDRLPFKDLTLGGFYLRIAQQLPIYEVSAQFTKPVCLIHGTDDTVVSPNASKKYDQIYQNSTLHLIEGADHCFSDSYQKNAVNLTTDFLQNNNAF is 0.57 s⁻¹

Entry LJ0536 (cinnamoyl esterase) (Lactobacillus johnsonii; S68A) (protein, full length in p15TV-L, E. coli BL21(DE3); His6-tag removed by TEV for kinetics; crystals: tag uncleaved, protease-treated (subtilisin or V8), residues 1-245 modelled, four C-terminal residues lost) MATITLERDGLQLVGTREEPFGEIYDMAIIFHGFTANRNTSLLREIANSLRDENIASVRFDFNGHGDADGKFENMTVLNEIEDANAILNYVKTDPHVRNIYLVGHSQGGVVASMLAGLYPDLIKKVVLLAPAATLKGDALEGNTQGVTYNPDHIPDRLPFKDLTLGGFYLRIAQQLPIYEVSAQFTKPVCLIHGTDDTVVSPNASKKYDQIYQNSTLHLIEGADHCFSDSYQKNAVNLTTDFLQNNNAF ; kcat = 0.22 s⁻¹

# kcat (protein: LJ0536 (cinnamoyl esterase) (Lactobacillus johnsonii; H225A) (protein, full length in p15TV-L, E. coli BL21(DE3); His6-tag removed by TEV for kinetics; crystals: tag uncleaved, protease-treated (subtilisin or V8), residues 1-245 modelled, four C-terminal residues lost) MATITLERDGLQLVGTREEPFGEIYDMAIIFHGFTANRNTSLLREIANSLRDENIASVRFDFNGHGDSDGKFENMTVLNEIEDANAILNYVKTDPHVRNIYLVGHSQGGVVASMLAGLYPDLIKKVVLLAPAATLKGDALEGNTQGVTYNPDHIPDRLPFKDLTLGGFYLRIAQQLPIYEVSAQFTKPVCLIHGTDDTVVSPNASKKYDQIYQNSTLHLIEGADACFSDSYQKNAVNLTTDFLQNNNAF ) is 0.3 s⁻¹

Lab note: measured kcat of LJ0536 (cinnamoyl esterase) (Lactobacillus johnsonii; Q145A) (protein, full length in p15TV-L, E. coli BL21(DE3); His6-tag removed by TEV for kinetics; crystals: tag uncleaved, protease-treated (subtilisin or V8), residues 1-245 modelled, four C-terminal residues lost) MATITLERDGLQLVGTREEPFGEIYDMAIIFHGFTANRNTSLLREIANSLRDENIASVRFDFNGHGDSDGKFENMTVLNEIEDANAILNYVKTDPHVRNIYLVGHSQGGVVASMLAGLYPDLIKKVVLLAPAATLKGDALEGNTAGVTYNPDHIPDRLPFKDLTLGGFYLRIAQQLPIYEVSAQFTKPVCLIHGTDDTVVSPNASKKYDQIYQNSTLHLIEGADHCFSDSYQKNAVNLTTDFLQNNNAF was 0.94 s⁻¹

Data provenance is paper PMC3158066.
